biological target: TsTS (Trichinella spiralis, UniProt Q9NDD3); experiment: Inhibition of TS-catalyzed reaction (tritium release from [5-3H]dUMP); format: biochemical, T. spiralis; settings: IC50 Assessment, 20 µM dUMP, 50 µM meTHF
Sequence (Q9NDD3 entry or part of it): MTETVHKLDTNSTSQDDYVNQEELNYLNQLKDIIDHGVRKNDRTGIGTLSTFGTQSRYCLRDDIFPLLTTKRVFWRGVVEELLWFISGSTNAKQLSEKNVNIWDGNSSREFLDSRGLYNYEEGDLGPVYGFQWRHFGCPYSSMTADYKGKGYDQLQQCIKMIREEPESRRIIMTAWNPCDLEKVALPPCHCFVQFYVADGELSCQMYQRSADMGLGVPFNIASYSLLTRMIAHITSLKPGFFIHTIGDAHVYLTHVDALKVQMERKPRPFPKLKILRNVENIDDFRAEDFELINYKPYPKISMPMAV
Known IC50 of a selection of compounds

Example entries begin here.
CC1Oc2c(c3c(c4oc5c(O)c(O)ccc5c(=O)c24)C(C)(C)C(C)O3)C1(C)C (centres unmarked) [Rheediaxanthone C (18), Rheediaxanthone C] | > 100 µM
COc1c(O)cc2oc3cc(O)c(CC=C(C)C)c(O)c3c(=O)c2c1CC=C(C)C [α-Mangostin (21), α-Mangostin, reference compound] | > 100 µM
COc1ccc2oc3cccc(O)c3c(=O)c2c1 [1-OH-7-OMe-Xanthone (19), 1-OH-7-OMe-Xanthone] | > 1000 µM

Ask | Can you look up IC50 on TsTS (Trichinella spiralis, UniProt Q9NDD3) for COc1ccc2oc3ccccc3c(=O)c2c1 [2-OMe-Xanthone (20), 2-OMe-Xanthone] ?
Reply | > 1000 µM

Ask | Similarly, COc1c(O)cc2oc3ccccc3c(=O)c2c1O [1,3-OH-2-OMe-Xanthone (16), 1,3-OH-2-OMe-Xanthone] ?
Reply | > 100 µM

* * *

Known IC50 of a selection of compounds
target: TsTS (Trichinella spiralis); test: Inhibition of TS-catalyzed reaction (tritium release from [5-3H]dUMP); assay type: biochemical, T. spiralis; details: IC50, 20 µM dUMP and 50 µM meTHF; mean ± S.E.M. (N=3) for alvaxanthone; rheediaxanthone B not repeated
Return type: number; implicit unit µM.

C=CC(C)(C)c1c2c(c3oc4c(O)c(O)ccc4c(=O)c3c1O)C(C)(C)C(C)O2 (centres unmarked) | 50.8

Switching to the query record.
Ask | Reported IC50 for C=CC(C)(C)c1c(O)cc2oc3c(O)c(O)cc(CC=C(C)C)c3c(=O)c2c1O : what is it?
Reply | 41.9

* * *

Known remaining activity at 100 µM of a selection of molecules
biological target: TsTS (Trichinella spiralis); assay: Inhibition of TS-catalyzed reaction (tritium release from [5-3H]dUMP); format: biochemical, T. spiralis; details: compound 100 µM; 20 µM dUMP, 250 µM meTHF
Please answer using the number first and the unit second.

Example entries begin here.
COc1c(C2(O)COc3cc(O)cc(O)c3C2=O)ccc2c1C=CC(C)(C)O2 (stereo not shown) | 74%
C=CC(C)(C)c1c(O)cc2oc3c(O)c(O)cc(CC=C(C)C)c3c(=O)c2c1O | 47%
CC(C)=CCc1c(O)ccc2c1OC(c1ccccc1)CC2=O (racemic) [(±)-7-Hydro-xy-8-C-prenyl flavanone] | 90%

Switching to the query record.
Ask | Reported remaining activity at 100 µM for COc1c(O)cc2oc3ccccc3c(=O)c2c1O : what is it?
Reply | 92%

* * *

Biological target: hTS (Homo sapiens, UniProt P04818)
Construct: made in house
Sequence (P04818 whole entry): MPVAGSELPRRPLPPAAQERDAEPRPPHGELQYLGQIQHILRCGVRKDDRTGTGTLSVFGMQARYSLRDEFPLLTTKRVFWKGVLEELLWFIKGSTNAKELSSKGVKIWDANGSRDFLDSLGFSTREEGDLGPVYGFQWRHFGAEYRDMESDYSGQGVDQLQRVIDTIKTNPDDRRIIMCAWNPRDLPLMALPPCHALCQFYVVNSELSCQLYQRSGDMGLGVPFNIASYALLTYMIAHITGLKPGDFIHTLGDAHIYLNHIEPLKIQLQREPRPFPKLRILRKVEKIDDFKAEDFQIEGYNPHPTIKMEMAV
Assay: Inhibition of TS-catalyzed reaction (tritium release from [5-3H]dUMP)
Assay type: biochemical
Conditions: compound 1000 µM; 20 µM dUMP, 250 µM meTHF; read-out: % Remaining Activity
Excerpt: The recombinant human, rat, mouse, T. spiralis and C. elegans TS proteins were produced, purified and separated into phosphorylated and non-phosphorylated fraction, as previously described. TS activity was monitored, following tritium release from [5-^3H]dUMP, and its inhibition studied as earlier reported.
OBSERVABLE: remaining activity at 1000 µM (%)
Return type: number; implicit unit %.

Ask | Reported remaining activity at 1000 µM for CC(=O)Oc1c(O)cc(-c2oc3cc(O)cc(O)c3c(=O)c2O)cc1O : what is it?
Reply | 31
